Test system: Leishmania braziliensis
Assay: Antileishmanial activity against Leishmania braziliensis MCAN/BR/98/R619 promastigotes
Format: functional
Details: read-out: ED50 (the source's name)
Listed next: entries and their corresponding log10 EC50.
Would you kindly interpret these values as log10 of EC50 expressed in µM?

Exam item: // log10 EC50 lookup, key: "COc1ccc(/C=C/c2sc(Nc3ccccc3)n[n+]2-c2ccccc2)cc1"
Marked response: 1.66

Exam item: So what's the measured log10 EC50 for this one? "N=C(N)c1ccc(OCCCCCOc2ccc(C(=N)N)cc2)cc1"
Marked response: 1.81

Exam item: Would you kindly share the measured log10 EC50 for "C(=C\c1sc(Nc2ccccc2)n[n+]1-c1ccccc1)/c1ccccc1" ?
Marked response: 1.70

Exam item: Quick check: log10 EC50 of "COc1cccc(/C=C/c2sc(Nc3ccccc3)n[n+]2-c2ccccc2)c1" ?
Marked response: 1.49

Exam item: Would you kindly share the measured log10 EC50 for "N#Cc1ccc(/C=C/c2sc(Nc3ccccc3)n[n+]2-c2ccccc2)cc1" ?
Marked response: 1.45

Exam item: Return reported log10 EC50; argument: "Fc1ccc(/C=C/c2sc(Nc3ccccc3)n[n+]2-c2ccccc2)cc1"
Marked response: 0.71

Exam item: Please look up its log10 EC50: "Clc1cccc(/C=C/c2sc(Nc3ccccc3)n[n+]2-c2ccccc2)c1"
Marked response: 0.24

Exam item: Quick one: log10 EC50 for "O=[N+]([O-])c1ccc(/C=C/c2sc(Nc3ccccc3)n[n+]2-c2ccccc2)cc1" ?
Marked response: 1.85

Exam item: Suppose we examine the compound "Cc1ccc(/C=C/c2sc(Nc3ccccc3)n[n+]2-c2ccccc2)cc1" ; what log10 EC50 value has been reported?
Marked response: 1.32

Exam item: Can you look up the measured log10 EC50 of "Oc1ccc(/C=C/c2sc(Nc3ccccc3)n[n+]2-c2ccccc2)cc1" for me?
Marked response: 2.58

Exam item: Given the entry "Brc1ccc(/C=C/c2sc(Nc3ccccc3)n[n+]2-c2ccccc2)cc1" , report its measured log10 EC50.
Marked response: 0.47

Exam item: What log10 EC50 value was documented for this compound, "Brc1cccc(/C=C/c2sc(Nc3ccccc3)n[n+]2-c2ccccc2)c1" ?
Marked response: 1.41

Exam item: Fill in the blank: the reported log10 EC50 of "Clc1ccc(/C=C/c2sc(Nc3ccccc3)n[n+]2-c2ccccc2)cc1" is ____.
Marked response: 0.79

Exam item: What value of measured log10 EC50 is listed for "CCOc1ccc(/C=C/c2sc(Nc3ccccc3)n[n+]2-c2ccccc2)cc1" ?
Marked response: 1.11

Exam item: If you can, please state the reported log10 EC50 value of "O=[N+]([O-])c1cccc(/C=C/c2sc(Nc3ccccc3)n[n+]2-c2ccccc2)c1" .
Marked response: 2.34

====

Assay: Cytotoxicity against BALB/c mouse peritoneal macrophages assessed as cell viability after 24 hrs by MTT assay
Type: cell-based, Peritoneal macrophage cell
Details: read-out: TD50
property.name: CC50 at 24 h (µM)
Output spec: scalar in µM, unitless text.

Examples with answers:
Oc1ccc(/C=C/c2sc(Nc3ccccc3)n[n+]2-c2ccccc2)cc1	32
COc1cccc(/C=C/c2sc(Nc3ccccc3)n[n+]2-c2ccccc2)c1	0.61
Fc1ccc(/C=C/c2sc(Nc3ccccc3)n[n+]2-c2ccccc2)cc1	5.82
Brc1cccc(/C=C/c2sc(Nc3ccccc3)n[n+]2-c2ccccc2)c1	2.47

From here, focus on the item given below.
Exam item: Recorded CC50 at 24 h of "Clc1cccc(/C=C/c2sc(Nc3ccccc3)n[n+]2-c2ccccc2)c1" , please.
Marked response: 6.23

Cited source: ChEMBL document CHEMBL1147906
